B1: PCDHGA10 (parent)
chain: FHELQMQVTASDSGDPPLSSNVSL

variants of: B1; assay: protein stability index of a GFP-peptide fusion (GPS, HEK-293T) (PSI 1-6); higher = more stable; conditions: c terminus: a fixed tail appended;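 also: lentivirally expressed fusions sorted by FACS into six bins by GFP to DsRed ratio, PSI derived from sequencing read proportions per bin multiplied by bin number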
Below, each entry is listed with its recorded protein stability index.
Reply: number alone, nothing else.

Examples from the recorded data:
Exercise: Given the variant G14K , what is its reported protein stability index?
Solution: 2.31

Exercise: Given the variant S19W , what is its reported protein stability index?
Solution: 2.45

Exercise: Given the variant V22D , what is its reported protein stability index?
Solution: 3.4

Exercise: Given the variant G14H , what is its reported protein stability index?
Solution: 2.54

Exercise: Given the variant A10I , what is its reported protein stability index?
Solution: 2.38

Exercise: Given the variant Q7N , what is its reported protein stability index?
Solution: 2

Exercise: Given the variant L18A , what is its reported protein stability index?
Solution: 2.5

Exercise: Given the variant N21C , what is its reported protein stability index?
Solution: 2.09

Exercise: Given the variant V8L , what is its reported protein stability index?
Solution: 2.15

Exercise: Given the variant M6E , what is its reported protein stability index?
Solution: 3.77

Others:
Exercise: Given the variant N21H , what is its reported protein stability index?
Solution: 2.06

Exercise: Given the variant N21Q , what is its reported protein stability index?
Solution: 2.05

Exercise: Given the variant L4E , what is its reported protein stability index?
Solution: 4.19

Exercise: Given the variant S20I , what is its reported protein stability index?
Solution: 2.85
